Measured Bliss excess of individual entries
Tested on: SF539 (Glioblastoma);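 note: after 72 h of two-drug dosing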
protocol.notes: Bliss excess, mean over the matrix (fraction); higher = more synergy

{"compound": "Cc1cc2ncnn2cc1Nc1ncc2c(n1)n(C1CCOCC1)c(=O)n2C [AZD7648] + COc1cc([C@@H]2c3cc4c(cc3[C@@H](O[C@@H]3O[C@@H]5CO[C@@H](C)O[C@H]5[C@H](O)[C@H]3O)[C@H]3COC(=O)[C@H]23)OCO4)cc(OC)c1O [Etoposide] (first compound max 10 µM, 7x7, partner max 10 µM)", "Bliss excess": 0.136}
{"compound": "CC1(C)CCC(CN2CCN(c3ccc(C(=O)NS(=O)(=O)c4ccc(NCC5CCOCC5)c([N+](=O)[O-])c4)c(Oc4cnc5[nH]ccc5c4)c3)CC2)=C(c2ccc(Cl)cc2)C1 [Venetoclax] + Cc1cc2ncnn2cc1Nc1ncc2c(n1)n(C1CCOCC1)c(=O)n2C [AZD7648] (first compound max 1 µM, 7x7, partner max 10 µM)", "Bliss excess": 0.0069}
{"compound": "C=CCn1c(=O)c2cnc(Nc3ccc(N4CCN(C)CC4)cc3)nc2n1-c1cccc(C(C)(C)O)n1 [AZD1775] + C[C@@H]1COCCN1C2=NC(=NC(=C2)C3(CC3)[S@](=N)(=O)C)C4=C5C=CNC5=NC=C4 [AZD6738] (first compound max 1 µM, partner max 10 µM)", "Bliss excess": 0.0027}
{"compound": "N#Cc1cnc(Nc2cc(NC[C@H]3CNCCO3)c(C(F)(F)F)cn2)cn1 [SRA737] + C=CCn1c(=O)c2cnc(Nc3ccc(N4CCN(C)CC4)cc3)nc2n1-c1cccc(C(C)(C)O)n1 [AZD1775] (first compound max 10 µM, partner max 1 µM)", "Bliss excess": 0.0293}
{"compound": "C=CCn1c(=O)c2cnc(Nc3ccc(N4CCN(C)CC4)cc3)nc2n1-c1cccc(C(C)(C)O)n1 [AZD1775] + Nc1ccn([C@@H]2O[C@H](CO)[C@@H](O)C2(F)F)c(=O)n1 [Gemcitabine] (first compound max 1 µM, partner max 0.3 µM)", "Bliss excess": 0.0282}
{"compound": "NC1(C(=O)N[C@@H](CCO)c2ccc(Cl)cc2)CCN(c2ncnc3[nH]ccc23)CC1 [Capivasertib] + CCN(CCO)CCCOc1ccc2c(Nc3cc(CC(=O)Nc4cccc(F)c4)[nH]n3)ncnc2c1 [AZD2811] (first compound max 10 µM, 7x7, partner max 1 µM)", "Bliss excess": -0.0573}

###

Test system: OVMIU (Ovarian Carcinoma)
protocol.notes: combination Emax (second highest fraction inhibited in the dose matrix, 72 h); higher = more inhibition; extreme values may be limits of the assay
# binarize combination Emax: threshold 0.5 inclusive, high side class 1, low side class 0

{"compound": "CC(=O)c1c(C)c2cnc(Nc3ccc(N4CCNCC4)cn3)nc2n(C2CCCC2)c1=O [Palbociclib] + Cn1cnc2c(F)c(Nc3ccc(Br)cc3Cl)c(C(=O)NOCCO)cc21 [Selumetinib] (first compound max 10 µM, 7x7, partner max 10 µM)", "cat": "class 0"}
{"compound": "Cc1cc2ncnn2cc1Nc1ncc2c(n1)n(C1CCOCC1)c(=O)n2C [AZD7648] + CN(C)CCCOc1ccc(-c2ccc3ncc4c(c3c2)n(C2CCOCC2)c(=O)n4C)cn1 [AZD0156] (first compound max 10 µM, 7x7, partner max 1 µM)", "cat": "class 0"}
{"compound": "COc1nnc2ccc(N3CCC(c4ccc(OCCN5CCN(C)C(=O)[C@H]5C)cc4)CC3)nn12 [AZD5153] + CCN(CCO)CCCOc1ccc2c(Nc3cc(CC(=O)Nc4cccc(F)c4)[nH]n3)ncnc2c1 [AZD2811] (first compound max 1 µM, 7x7, partner max 1 µM)", "cat": "class 1"}
{"compound": "Cc1cc2ncnn2cc1Nc1ncc2c(n1)n(C1CCOCC1)c(=O)n2C [AZD7648] + O=C(c1cc(Cc2n[nH]c(=O)c3ccccc23)ccc1F)N1CCN(C(=O)C2CC2)CC1 [Olaparib] (first compound max 10 µM, 7x7, partner max 10 µM)", "cat": "class 0"}
